compounds and their reported inhibition
System Tested: Glycogen synthase kinase-3 beta (Homo sapiens)
Sequence (P49841 whole entry, looked up): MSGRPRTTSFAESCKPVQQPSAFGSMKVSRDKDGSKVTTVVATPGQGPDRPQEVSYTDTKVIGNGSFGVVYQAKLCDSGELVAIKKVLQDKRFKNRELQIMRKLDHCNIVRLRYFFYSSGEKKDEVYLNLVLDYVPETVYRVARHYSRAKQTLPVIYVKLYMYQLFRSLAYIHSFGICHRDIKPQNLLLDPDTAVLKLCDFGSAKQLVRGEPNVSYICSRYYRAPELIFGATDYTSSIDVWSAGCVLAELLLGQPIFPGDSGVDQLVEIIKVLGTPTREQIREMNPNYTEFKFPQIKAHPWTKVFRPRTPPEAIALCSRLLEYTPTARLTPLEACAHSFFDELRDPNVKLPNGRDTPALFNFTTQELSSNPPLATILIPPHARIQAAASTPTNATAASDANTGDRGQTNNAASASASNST
Assay Name: Inhibition of human recombinant GSKbeta at 25 uM

{"Compound": "O[C@]12C=C(c3nccc4c3[nH]c3ccccc34)C3CCN(CCCC/C=C\\CC1)C[C@@]31C[C@]34CC[C@H](CCCN3[C@H]12)O4 (some centres not stated)", "inhibition [%]": 88.4}
{"Compound": "C1=C(c2nccc3c2[nH]c2ccccc23)C2CCN3CCCC/C=C\\C/C=C/1[C@@H]1N4CCCC/C=C\\[C@H]4C[C@]21C3 (some centres not stated) [12,13-DEHYDROMANZAMINE A]", "inhibition [%]": 71.2}
{"Compound": "CC(=O)Nc1nc(C)c(S(=O)(=O)Oc2cccc3c2[nH]c2c(C4=C[C@@]5(O)CC/C=C\\CCCCN6CCC4[C@]4(C[C@@H]7CCC(=O)CCCN7[C@H]45)C6)nccc23)s1 (some centres not stated)", "inhibition [%]": 78.8}
{"Compound": "COC(=O)CCCCn1c2ccccc2c2ccnc(C3=C[C@@]4(O)CC/C=C\\CCCCN5CCC3[C@]3(C[C@@H]6/C=C\\CCCCN6[C@H]34)C5)c21 (some centres not stated)", "inhibition [%]": 3}
{"Compound": "O=C1CCCN2[C@@H](CC1)C[C@]13CN4CCCC/C=C\\CC[C@](O)(C=C(c5nccc6c5[nH]c5c(OS(=O)(=O)c7ccc(Br)cc7)cccc56)C1CC4)[C@H]23 (some centres not stated)", "inhibition [%]": 63}
{"Compound": "O=C1CCCN2[C@@H](CC1)C[C@]13CN4CCCC/C=C\\CC[C@](O)(C=C(c5nccc6c5[nH]c5c(OS(=O)(=O)c7ccc(Cl)cc7)cccc56)C1CC4)[C@H]23 (some centres not stated)", "inhibition [%]": 76.7}
{"Compound": "Cc1ccc(S(=O)(=O)Oc2cccc3c2[nH]c2c(C4=C[C@@]5(O)CC/C=C\\CCCCN6CCC4[C@]4(C[C@H]7/C=C\\CCCCN7[C@H]45)C6)nccc23)cc1 (some centres not stated)", "inhibition [%]": 80.4}
{"Compound": "COc1cccc2c3ccnc(C4=C[C@@]5(O)CC/C=C\\CCCCN6CCC4[C@]4(C[C@@H]7/C=C\\CCCCN7[C@H]45)C6)c3n(C)c12 (some centres not stated)", "inhibition [%]": 72.4}
{"Compound": "O[C@]12C=C(c3nccc4c3[nH]c3ccccc34)[C@@H]3CCN(CCCCCCCC1)C[C@@]31C[C@@H]3CCCCCCN3[C@H]12", "inhibition [%]": 0}
{"Compound": "CC(=O)Oc1cccc2c1[nH]c1c(C3=C/C4=C/C/C=C\\CCCCN5CCC3[C@]3(C[C@@H]6/C=C\\CCCCN6[C@@H]43)C5)nccc12 (some centres not stated) [12,13-DEHYDRO-8-O-ACETYLMANZAMINE A]", "inhibition [%]": 79.1}
{"Compound": "Oc1cccc2c1[nH]c1c(C3=C[C@@]4(O)CCCCCCCCN5CCC3[C@]3(C[C@@H]6CCCCCCN6[C@H]34)C5)nccc12 (some centres not stated)", "inhibition [%]": 29}
{"Compound": "CCCCCCCCCCCCn1c2ccccc2c2ccnc(C3=C[C@@]4(O)CC/C=C\\CCCCN5CC[C@@H]3[C@]3(C[C@@H]6/C=C\\CCCCN6[C@H]34)C5)c21", "inhibition [%]": 0}
